Target: active human PAI-1, recombinant, wild-type, non-glycosylated (E. coli) (human, UniProt P05121 24-402)
Sequence (P05121 24-402): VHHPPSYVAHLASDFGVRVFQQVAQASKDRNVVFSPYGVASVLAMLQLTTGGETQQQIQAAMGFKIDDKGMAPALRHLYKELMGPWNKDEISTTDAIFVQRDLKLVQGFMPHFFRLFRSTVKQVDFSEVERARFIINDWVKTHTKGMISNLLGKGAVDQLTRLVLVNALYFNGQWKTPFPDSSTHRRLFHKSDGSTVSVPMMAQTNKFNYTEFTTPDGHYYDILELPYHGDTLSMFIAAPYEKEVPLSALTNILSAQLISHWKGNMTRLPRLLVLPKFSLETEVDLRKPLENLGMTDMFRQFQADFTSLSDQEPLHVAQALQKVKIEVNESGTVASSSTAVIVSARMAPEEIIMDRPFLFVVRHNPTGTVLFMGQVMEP
Assay: cell-based or functional assay
Hi there, I'd appreciate the recorded HT-1080 Exo PAI-1 (IC50 in nM) human for every entry that follows.
Write the number in nM without appending the unit.

# input What value of HT-1080 Exo PAI-1 (IC50 in nM) human has been reported for the following binder? Antibody 09 scFv (scFv) QVQLQQSGAEVKKPGSSVKVSCKASGGTFSSYAISWVRQAPGQGLEWMGGIIPAFDTANYAQKFQGRVTITADESTSTAYMELSGLRSEDTAVYYCAREKRQWLEGHFDYWGRGTPVTVSSDIQMTQSPSFLSASIGDRVTITCQASEGIYHNLAWYQQKPGKAPKLLIYRASSLASGAPSRFSGSGSGTDFTLTISSLQPDDFATYYCQQYSNYPLTFGGGTKLEIK
# output 23

# input And then Antibody 27 scFv (scFv) QVQLQQSGAEVKKPGSSVKVSCKASGGAFSSYAISWVRQAPGQGLEWMGGIIPTFGTANYAQKFQGRVTITADESTSTAYMELSGLRSEDTAVYYCAREKRQWLEGHFDYWGRGTPVTVSSDIQMTQSPSFLSASIGDRVTITCRASEGIYHNLAWYQQKPGKAPKLLIYRASSLASGAPSRFSGSGSGTDFTLTISSLQPDDFATYYCQQYSNYPLTFGGGTKLEIK , what is it?
# output 18.8

# input And then Antibody 01 scFv (scFv) QVQLVQSGAEVKKPGSSVKVSCKASGGTFSSYAISWVRQAPGQGLEWMGGIIPIFGTANYAQKFQGRVTITADESTSTAYMELSSLRSEDTAVYYCAREKRQWLEGHFDYWGRGTLVTVSSDIQMTQSPSTLSASVGDRVTITCRASEGIYRSLAWYQQKPGKAPKLLIYKASSLASGVPSRFSGSGSGTEFTLTISSLQPDDFATYYCQQYSNYPLTFGGGTKVEIK , what is it?
# output 23.9

# input And then Antibody 15 scFv (scFv) QVQLQQSGAEVKKPGSSVKVSCKASGGTFSSYAISWVRQAPGQGLEWMGGIIPTFGTANYAQKFQGRVTITADESTSTAYMELSGLRSEDTAVYYCAREKRQWLEGHFDYWGRGTPVTVSSDIQMAQSPSFLSASIGDRVTITCRASEGIYHNLAWYQQKPGKAPKLLIYRASSLASGAPSRFSGSGSGTDFTLTISSLQPDDFATYYCQQYSNYPLTFGGGTKLEIR , what is it?
# output 36

# input And then Antibody 16 scFv (scFv) QVQLVQSGAEVKKPGSSVKVSCKASGGTFSSYAISWVRQAPGQGLEWMGGIIPTFGTANYAQKFQGRVTITADESTSTAYMELSSLRSEDTAVYYCAREKRQWLEGHFDYWGRGTLVTVSSDIQMTQSPSTLSASVGDRVTITCRASESIYHSLAWYQQKPGKAPKLLIYKASSLASGVPSRFSGSRSGTEFTLTISSLQPDDFATYYCQQYSNYPLTFGGGTKVEIK , what is it?
# output 16.9

# input And then Antibody 14 scFv (scFv) QVQLQQSGAEVKKPGSSVKVSCKASGGTFSSYAISWVRQAPGQGLEWMGGIIPTFGTANYAQKFQGRVTITADESTSTAYMELSGLRSEDTAVYYCAREKRQWLEGHFDYWGRGTLVTVSSDIQMTQSPSFLSASIGDRVTITCRASEGIYHNLAWYQQKPGKAPKLLIYRASSLASGAPSRFSGSGSGTDFTFTISSLQPDDFATYYCQQYSNYPLTFGGGTKLEIK , what is it?
# output 28

# input And then Antibody 20 scFv (scFv) QVQLQQSGAEVKKPGSSVKVSCKASGGTFSSYAISWVRQAPGQGLEWMGGIIPTFGTANYAQKFQGRVTITADESTSTAYMELSSLRSEDTAVYYCAREKRQWLEGHFDYWGRGTLVTVSSDIQMTQSPSTLSASVGDRVTITCRASEGIYHELAWYQQKPGKAPKLLIYRASSLASGVPSRFSGSRSGTEFTLTISSLQPDDFATYYCQQYSDYPLTFGGGTKVEIK , what is it?
# output 19.1
